System: SK-MEL-28
Assay: NCI tumour cell line growth inhibition, 48 h
Activity calls are given as the source filed them. No stated cut-off is given here; in the data, active = GI50 up to about 1.1 µM and inactive = higher.
parameter: GI50

{"columns": ["molecule", "GI50"],
 "data": [
  ["Cc1cc(NS(=O)(=O)c2ccc(NC(=O)c3cccc4c(NNc5ccc(S(N)(=O)=O)cc5)c5ccccc5nc34)cc2)no1", "35.2 µM (inactive)"],
  ["COc1ccc(-c2c(C#N)c(-c3ccc(C)cc3)n(NS(=O)(=O)c3ccc(C)cc3)c(=O)c2C#N)cc1", "61.1 µM (inactive)"],
  ["CCCCCCCCCCCCCCCCCCNc1ccn(C2OC(COP(=O)(O)OCC3OC(n4cc(C)c(=O)[nH]c4=O)CC3F)C(O)C2O)c(=O)n1 (stereo not drawn)", "8.87 µM (inactive)"],
  ["CC1(C)N=c2c(ncn2Cc2ccccc2)=C(C(N)=O)N1", "> 100 µM (inactive)"],
  ["COc1cc(OC)c([C@@H]2OC(=O)C3C2C(=O)O[C@H]3c2cc(OC)c(OC)cc2OC)cc1OC (stereo partly drawn)", "> 100 µM (inactive)"]
]}

Look up SK-MEL-28 data: GI50 of CN(C)CCC1(C2=CCCC2)CC/C(=C\c2ccccc2Cl)C1=O (stereo not drawn) , then report it. 13.1 µM (inactive)

Look up SK-MEL-28 data: GI50 of `Clc1ccc(C2=Cc3nc2c(-c2ccccc2)c2ccc([nH]2)c(-c2ccccc2)c2nc(c(-c4ccccc4)c4ccc([nH]4)c3-c3ccccc3)C=C2)cc1` , then report it. > 62.5 µM (inactive)

Look up SK-MEL-28 data: GI50 of O=C(Cc1ccccc1)NN1C(=O)C(Cl)C1c1ccccc1O (stereo not drawn) , then report it. 23.5 µM (inactive)
